Biological target: GABA-A receptor; anion channel (Homo sapiens) (UniProt P14867+P47870+P18507+P28472+P48169+Q99928+Q9UN88+P34903+O00591+O14764+Q8N1C3+P18505+P78334+P47869+P31644+Q16445)
Assay: Inhibition of GABAA receptor (unknown origin) at 50 uM by radioligand receptor binding assay relative to control
Format: protein-complex assay
Where inhibition equals or exceeds 40%, the correct label is MET; where it does not, the label is NOT MET.

>  <mol>
CCOC(=O)Cc1ccc(OCC(=O)N2CCN(C(=O)OC(C)(C)C)CC2)c(OC)c1

>  <assigned.category>
MET

$$$$
>  <mol>
CCCOC(=O)Cc1ccc(OCC(=O)N2CCN(C(=O)OC(C)(C)C)CC2)c(OC)c1

>  <assigned.category>
NOT MET

$$$$
>  <mol>
CCCOC(=O)Cc1ccc(OCC(=O)N2CCNCC2)c(OC)c1

>  <assigned.category>
NOT MET

$$$$
>  <mol>
CCOC(=O)Cc1ccc(OCC(=O)N2CCNCC2)c(OC)c1

>  <assigned.category>
MET

$$$$
>  <mol>
CCCOC(=O)Cc1ccc(OCC(=O)N2CCOCC2)c(OC)c1

>  <assigned.category>
MET

$$$$

Turning now to a further molecule:
Evaluate CCOc1cc(CC(=O)OC(C)C)ccc1OCC(=O)N1CCNCC1 : inhibition at minimum 40%?
NOT MET

* * *

Assay: Toxicity in rabbit assessed as lethal dose
Parameters: species or system Oryctolagus cuniculus
Conditions: in vivo
measured.parameter: LD50 (mg/kg)
Answers are plain numbers, in mg/kg.

Please review the entries below; each comes with its answer.
>  <mol>
CC(C)c1cccc(C(C)C)c1O

>  <LD50, mg/kg>
20.2

$$$$
>  <mol>
CCCOC(=O)Cc1ccc(OCC(=O)N2CCOCC2)c(OCC)c1

>  <LD50, mg/kg>
108

$$$$
>  <mol>
CCOC(=O)Cc1ccc(OCC(=O)N2CCOCC2)c(OCC)c1

>  <LD50, mg/kg>
131

$$$$

Record summary for CCOc1cc(CC(=O)OC(C)C)ccc1OCC(=O)N1CCOCC1 : reported LD50 = 112

* * *

Assay: Toxicity in mouse assessed as lethal dose
Conditions: in vivo
measured.parameter: LD50
Note: state the figure and append the unit.

>  <mol>
CCOc1cc(CC(=O)OC(C)C)ccc1OCC(=O)N1CCN(C(=O)OC(C)(C)C)CC1

>  <LD50>
258 mg/kg

$$$$
>  <mol>
COc1cc(CC(=O)OC(C)C)ccc1OCC(=O)N1CCOCC1

>  <LD50>
276 mg/kg

$$$$
>  <mol>
COc1cc(CC(=O)OC(C)C)ccc1OCC(=O)N1CCN(C(=O)OC(C)(C)C)CC1

>  <LD50>
264 mg/kg

$$$$
>  <mol>
CCOC(=O)Cc1ccc(OCC(=O)N2CCN(C(=O)OC(C)(C)C)CC2)c(OCC)c1

>  <LD50>
217 mg/kg

$$$$
>  <mol>
CCCOC(=O)Cc1ccc(OCC(=O)N2CCN(C(=O)OC(C)(C)C)CC2)c(OC)c1

>  <LD50>
340 mg/kg

$$$$
>  <mol>
CCOC(=O)Cc1ccc(OCC(=O)N2CCOCC2)c(OC)c1

>  <LD50>
278 mg/kg

$$$$

I would be grateful if you could provide LD50 for each of the following entries.
1. CCCOC(=O)Cc1ccc(OCC(=O)N2CCOCC2)c(OCC)c1
2. CCOC(=O)Cc1ccc(OCC(=O)N2CCOCC2)c(OCC)c1
3. CCOC(=O)Cc1ccc(OCC(=O)N2CCN(C(=O)OC(C)(C)C)CC2)c(OC)c1
4. CCCOC(=O)Cc1ccc(OCC(=O)N2CCN(C(=O)OC(C)(C)C)CC2)c(OCC)c1
5. CCOc1cc(CC(=O)OC(C)C)ccc1OCC(=O)N1CCOCC1
6. CCCOC(=O)Cc1ccc(OCC(=O)N2CCOCC2)c(OC)c1

["200 mg/kg", "227 mg/kg", "257 mg/kg", "240 mg/kg", "200 mg/kg", "339 mg/kg"]
